# Test system: Saccharomyces cerevisiae
# TEST_DETAILS: protein stability index of tFT-peptide fusion in deletion strain of DAS1 (PSI (0-1 scale)); higher = more stable (slower turnover)
MEASUREMENT_NAME: protein stability index
// response body must contain only the number

// known answers, use as guide
1. CTSCGYKFRPNN 0.714
2. PSLAASYWRVVG 0.672
3. FSMRWTFRYWSN 0.538
4. CTSCGYYFRTNN 0.697
5. IKILRQKMNHQN 0.659

Switching to the query record.
Q: I have this sequence here, `KKHKKAQKQKIN` , and I need its recorded protein stability index.
A: 0.601

====

# Test system: Saccharomyces cerevisiae
# TEST_DETAILS: protein stability index of tFT-peptide fusion (C-terminal peptide) (PSI (0-1 scale)); higher = more stable (slower turnover)
# EXPERIMENTAL_CONTEXT: genetic background: wild type; temperature: 37 C
MEASUREMENT_NAME: protein stability index
// response body must contain only the number

1. FFASAAVHLVTC 0.491
2. SGRFRFVLLGLV 0.253
3. PPSLPPLISFSP 0.741
4. CFCLFVFFISSC 0.397
5. CGWFVSVGWRLG 0.506
6. ESFIKFALYIVN 0.51
7. SIWVGSRFRWVV 0.344
8. LQNCRVSVLLGW 0.454

Switching to the query record.
Q: Form field: protein stability index recorded for `SLLFPLPRPLLD` with Saccharomyces cerevisiae (enter value)
A: 0.718

====

# Test system: Saccharomyces cerevisiae
# TEST_DETAILS: protein stability index of tFT-peptide fusion (C-terminal peptide) (PSI (0-1 scale)); higher = more stable (slower turnover)
# EXPERIMENTAL_CONTEXT: genetic background: wild type; temperature: 30 C
MEASUREMENT_NAME: protein stability index
// response body must contain only the number

1. KQLGMTCRYISK 0.692
2. ERSRRVSNIMVL 0.48
3. RPISPIAVGSVV 0.675
4. PPSYYPPPYLAF 0.653
5. WSSPCTGGVGKC 0.63

Q: I have this sequence here, `YRPLEQLLSLSH` , and I need its recorded protein stability index.
A: 0.651

====

# System: Saccharomyces cerevisiae
# TEST_DETAILS: protein stability index of tFT-peptide fusion (C-terminal peptide) (PSI (0-1 scale)); higher = more stable (slower turnover)
# EXPERIMENTAL_CONTEXT: genetic background: wild type; temperature: 30 C
Each record here notes measured protein stability index.

1. GEAGICAGTAGG 0.693
2. LDPGPLVRTPRL 0.692
3. GALIGNDGHVSG 0.679
4. AVTRLQPVMRAV 0.68
5. SIQCHNTKKFYE 0.715

Q: I have this sequence here, `LPSAPLLPLLRP` , and I need its recorded protein stability index.
A: 0.68

Q: I have this sequence here, `GERSGVSIRHEG` , and I need its recorded protein stability index.
A: 0.726

Q: I have this sequence here, `IGGIIFICTSNK` , and I need its recorded protein stability index.
A: 0.555

Q: I have this sequence here, `RGLVRLIRGGYN` , and I need its recorded protein stability index.
A: 0.698

Q: I have this sequence here, `KTKKPIILDTSN` , and I need its recorded protein stability index.
A: 0.641

Q: I have this sequence here, `CFFLSFNVFRLF` , and I need its recorded protein stability index.
A: 0.148

Q: I have this sequence here, `PPPFLQPLPASP` , and I need its recorded protein stability index.
A: 0.729

Q: I have this sequence here, `EGGGGRFWVCVG` , and I need its recorded protein stability index.
A: 0.425

Q: I have this sequence here, `GETGGACGVWAG` , and I need its recorded protein stability index.
A: 0.685

Q: I have this sequence here, `NNYRKKKHNYKK` , and I need its recorded protein stability index.
A: 0.697

Q: I have this sequence here, `HPAPGSPPAAHL` , and I need its recorded protein stability index.
A: 0.734

Q: I have this sequence here, `SSPPAPHGAHPP` , and I need its recorded protein stability index.
A: 0.752

Q: I have this sequence here, `VCPVIGGGGVGV` , and I need its recorded protein stability index.
A: 0.695

Q: I have this sequence here, `VVRLGGVSWAGG` , and I need its recorded protein stability index.
A: 0.649

Q: I have this sequence here, `PRPPPPRPPFST` , and I need its recorded protein stability index.
A: 0.717

Q: I have this sequence here, `TRKESNTIHNEQ` , and I need its recorded protein stability index.
A: 0.688

Q: I have this sequence here, `GEQGVLARSDRI` , and I need its recorded protein stability index.
A: 0.589

Q: I have this sequence here, `HSCSRPLTPPPF` , and I need its recorded protein stability index.
A: 0.72

====

# Tested on: Saccharomyces cerevisiae
# TEST_DETAILS: protein stability index of tFT-peptide fusion (C-terminal peptide) (PSI (0-1 scale)); higher = more stable (slower turnover)
# EXPERIMENTAL_CONTEXT: genetic background: doa10 deletion; temperature: 30 C
# binarize protein stability index: threshold 0.3 inclusive, high side 1, low side 0

Solved entries:
1. CFVSFLHLLYFS 1
2. SPCLSWTLVLVL 0
3. CLNPCVRWDGHV 1

Q: Determine whether measured protein stability index meets or exceeds 0.3 for `LAGLVRFWGCVG`
A: 0

Q: Determine whether measured protein stability index meets or exceeds 0.3 for `WNIVKHREDMLS`
A: 1

====

# Test system: Saccharomyces cerevisiae
# TEST_DETAILS: protein stability index of tFT-peptide fusion (C-terminal peptide) (PSI (0-1 scale)); higher = more stable (slower turnover)
# EXPERIMENTAL_CONTEXT: genetic background: das1 deletion; temperature: 30 C
MEASUREMENT_NAME: protein stability index
// response body must contain only the number

1. RVRRETRLRQIA 0.65
2. ARKIGKVIPKLG 0.634
3. RIIKIRAISINL 0.523

Q: I have this sequence here, `LMLISFLFLSLL` , and I need its recorded protein stability index.
A: 0.448

Q: I have this sequence here, `LSLWLFRILSVR` , and I need its recorded protein stability index.
A: 0.335

Q: I have this sequence here, `NLFVFLSYLFNV` , and I need its recorded protein stability index.
A: 0.563

Q: I have this sequence here, `RRMGLRLFLLWM` , and I need its recorded protein stability index.
A: 0.534

====

# System: Saccharomyces cerevisiae
# TEST_DETAILS: protein stability index of tFT-peptide fusion (C-terminal peptide) (PSI (0-1 scale)); higher = more stable (slower turnover)
# EXPERIMENTAL_CONTEXT: genetic background: doa10 deletion; temperature: 30 C
Each record here notes measured protein stability index.

// known answers, use as guide
1) NMVSMVVVIFGV 0.196
2) YHDKLRAIEKFF 0.199
3) VFLFSLLIVFFP 0.195

Switching to the query record.
Q: I have this sequence here, `VVGILVLASWDL` , and I need its recorded protein stability index.
A: 0.196

====

Each record here notes measured protein stability index.
# Test system: Saccharomyces cerevisiae
# TEST_DETAILS: protein stability index of tFT-peptide fusion (C-terminal peptide) (PSI (0-1 scale)); higher = more stable (slower turnover)
# EXPERIMENTAL_CONTEXT: genetic background: wild type; temperature: 30 C
// response body must contain only the number

Q: I have this sequence here, `ALPIVPDVCFSP` , and I need its recorded protein stability index.
A: 0.679

Q: I have this sequence here, `SRRSCTLLSTTW` , and I need its recorded protein stability index.
A: 0.698

Q: I have this sequence here, `DHGVRASSRATG` , and I need its recorded protein stability index.
A: 0.692

Q: I have this sequence here, `NDLYDVLKYLFN` , and I need its recorded protein stability index.
A: 0.712

Q: I have this sequence here, `PTSPPPPLPPPS` , and I need its recorded protein stability index.
A: 0.707

Q: I have this sequence here, `PRHYSPPPVPSR` , and I need its recorded protein stability index.
A: 0.686

Q: I have this sequence here, `LGTLLWWGAGRG` , and I need its recorded protein stability index.
A: 0.708

====

# Tested on: Saccharomyces cerevisiae
# TEST_DETAILS: protein stability index of tFT-peptide fusion (C-terminal peptide) (PSI (0-1 scale)); higher = more stable (slower turnover)
# EXPERIMENTAL_CONTEXT: genetic background: wild type; temperature: 30 C
Each record here notes measured protein stability index.
// response body must contain only the number

1) QGEARRPPSPGR 0.638
2) GPPPPPRPPLPP 0.665
3) LTTFLLTRIVGA 0.567
4) GTVTVLVGVHWE 0.539
5) RFEFFHLVSWLL 0.644

Q: Form field: protein stability index recorded for `PPPAPPLLPPLP` with Saccharomyces cerevisiae (enter value)
A: 0.718

Q: Form field: protein stability index recorded for `GQAGGRVEVREP` with Saccharomyces cerevisiae (enter value)
A: 0.689

Q: Form field: protein stability index recorded for `VVVGGVGGFFGC` with Saccharomyces cerevisiae (enter value)
A: 0.754
